Assay: in vivo
Settings: female, ICR, mouse, ip
compounds and their reported LD50 at 14 day
Reported property: LD50 at 14 day (mg/kg)

>>> test_result("CNC1CCC2=C1CN(c1c(F)cc3c(=O)c(C(=O)O)cn(C4CC4)c3c1F)C2 (stereo not shown)")
810
>>> test_result("COc1c(N2CC3=C(C2)C(N)CC3)c(F)cc2c(=O)c(C(=O)O)cn(C3CC3)c12 (stereo not shown)")
755
>>> test_result("NC1CCC2=C1CN(c1c(F)cc3c(=O)c(C(=O)O)cn(C4CC4)c3c1Cl)C2 (stereo not shown)")
731
>>> test_result("NC1CCC2=C1CN(c1c(F)cc3c(=O)c(C(=O)O)cn(C4CC4)c3c1F)C2 (stereo not shown)")
720
